B1: tRNA (parent)
chain: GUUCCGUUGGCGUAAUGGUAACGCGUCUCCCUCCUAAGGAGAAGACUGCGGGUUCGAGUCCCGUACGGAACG

variants of: B1; assay: yeast fitness relative to wild type (ratio to wild type); higher = fitter; tRNA-Arg(CCU), competitive growth, 37 C, YPD
This sample holds only a part of the variants without activity.
Would you mind telling me the reported yeast fitness of each entry?

What value of yeast fitness has been recorded for this entry: A14G C24U C55U G67C
≤ 0.5

What value of yeast fitness has been recorded for this entry: U16C U32A
0.682

What value of yeast fitness has been recorded for this entry: C31G U47G C49G
0.647

What value of yeast fitness has been recorded for this entry: C22G C55U U59A A65C
≤ 0.5

What value of yeast fitness has been recorded for this entry: U2G A15C G17C C22G C24A C31A G67C
0.579

What value of yeast fitness has been recorded for this entry: C5A C27A
0.936

What value of yeast fitness has been recorded for this entry: C29U C34A A70U
≤ 0.5

What value of yeast fitness has been recorded for this entry: C4A C5A C22A U28G C33G A57G
≤ 0.5

What value of yeast fitness has been recorded for this entry: C5U A21G U28C A36G C55A
≤ 0.5

What value of yeast fitness has been recorded for this entry: C33A
0.795

What value of yeast fitness has been recorded for this entry: C34G A42C C62G
0.631

What value of yeast fitness has been recorded for this entry: C49U C55G G63A
≤ 0.5

What value of yeast fitness has been recorded for this entry: U2A A15C G58C U64C
0.53

What value of yeast fitness has been recorded for this entry: G6A G25C G48C
0.654

What value of yeast fitness has been recorded for this entry: G68U A69C
0.817

What value of yeast fitness has been recorded for this entry: U19C C31G U53G U54A A57U
0.653

What value of yeast fitness has been recorded for this entry: C4A A15U G18C C55U G56C G67A
≤ 0.5

What value of yeast fitness has been recorded for this entry: U3A G6C
0.662

What value of yeast fitness has been recorded for this entry: C4A A42U A57U G58C
≤ 0.5

What value of yeast fitness has been recorded for this entry: C5U U13C U19A A21U C24A
0.511

What value of yeast fitness has been recorded for this entry: U13G G18C C30U C33G A65C A70G
≤ 0.5

What value of yeast fitness has been recorded for this entry: G12A C34G A37G G38A G50A
≤ 0.5

What value of yeast fitness has been recorded for this entry: G9A C11A C30G C46U
≤ 0.5

What value of yeast fitness has been recorded for this entry: G9A C46A
0.91

What value of yeast fitness has been recorded for this entry: U26C C46A U47G G50A
0.541

What value of yeast fitness has been recorded for this entry: G25A C46U C66U
0.778

What value of yeast fitness has been recorded for this entry: U2A C30A G52A A65U
≤ 0.5

What value of yeast fitness has been recorded for this entry: C5G A43U
0.719

What value of yeast fitness has been recorded for this entry: C24U A37U
0.652

What value of yeast fitness has been recorded for this entry: A42G A65C A69C A70G
0.577

What value of yeast fitness has been recorded for this entry: U13C C33G A40G U59A
≤ 0.5

What value of yeast fitness has been recorded for this entry: C27G A65C A70C
0.53

What value of yeast fitness has been recorded for this entry: U3C G9A C61U
0.827

What value of yeast fitness has been recorded for this entry: G18C C62G G67U
≤ 0.5

What value of yeast fitness has been recorded for this entry: C4U A43G G68C
0.553

What value of yeast fitness has been recorded for this entry: U28A C34U G41C G51A U53A U59C A70U
≤ 0.5

What value of yeast fitness has been recorded for this entry: C11U C22G C62U G68C
0.542

What value of yeast fitness has been recorded for this entry: U8C C55U
0.754

What value of yeast fitness has been recorded for this entry: C22U C30G A36U C46G
≤ 0.5

What value of yeast fitness has been recorded for this entry: C5G A37U C55G C61G C66G
0.623

What value of yeast fitness has been recorded for this entry: A42U A57U C61U
≤ 0.5

What value of yeast fitness has been recorded for this entry: U3C A57C U64A
≤ 0.5

What value of yeast fitness has been recorded for this entry: U19C U26C C27A C30G U54A G56A
≤ 0.5

What value of yeast fitness has been recorded for this entry: U2G C11G A20U C24G G51A C60G G68C
≤ 0.5

What value of yeast fitness has been recorded for this entry: G23C C31G C60A A70U
0.554

What value of yeast fitness has been recorded for this entry: A15C G67C
0.684

What value of yeast fitness has been recorded for this entry: G63A A65U
0.945

What value of yeast fitness has been recorded for this entry: A15G U26G C30U G51U G52A
≤ 0.5

What value of yeast fitness has been recorded for this entry: C11G U32C
0.597

What value of yeast fitness has been recorded for this entry: C5U C11A A20C C22G C30U C31G
≤ 0.5

What value of yeast fitness has been recorded for this entry: G25A G50C
0.929

What value of yeast fitness has been recorded for this entry: C4A U26G C29G U47G U59G
≤ 0.5

What value of yeast fitness has been recorded for this entry: G17A A20G C27G A36C
0.609

What value of yeast fitness has been recorded for this entry: U2G C61G
0.556

What value of yeast fitness has been recorded for this entry: U16G G39C G56C
≤ 0.5

What value of yeast fitness has been recorded for this entry: A21G C34G A40G
0.572

What value of yeast fitness has been recorded for this entry: G12A C46G
1

What value of yeast fitness has been recorded for this entry: U2A U16C C30A A65U
≤ 0.5

What value of yeast fitness has been recorded for this entry: A45C C60G
0.603

What value of yeast fitness has been recorded for this entry: U2C C27U C31U U32G C55A G63A
0.645

What value of yeast fitness has been recorded for this entry: C4A G9A U13G C22U C61A A70C
≤ 0.5

What value of yeast fitness has been recorded for this entry: A42G G51A C60A
≤ 0.5

What value of yeast fitness has been recorded for this entry: A20U A45U A69U
0.726

What value of yeast fitness has been recorded for this entry: C33U C62G A69C
0.595

What value of yeast fitness has been recorded for this entry: A40C G48C U59C
≤ 0.5

What value of yeast fitness has been recorded for this entry: C29U G41U
0.769

What value of yeast fitness has been recorded for this entry: C46U U54C
0.717

What value of yeast fitness has been recorded for this entry: A37G G44A A70C
0.859

What value of yeast fitness has been recorded for this entry: C4G U26A A57G
≤ 0.5

What value of yeast fitness has been recorded for this entry: G10A A57G G68C
≤ 0.5

What value of yeast fitness has been recorded for this entry: C4U A40G A43U C55G
0.584

What value of yeast fitness has been recorded for this entry: C5A U8C C11U C31A A37U G67C
≤ 0.5

What value of yeast fitness has been recorded for this entry: U16G U59G
0.78

What value of yeast fitness has been recorded for this entry: U26C A36G A69C
0.736

What value of yeast fitness has been recorded for this entry: G18A A65C
0.759

What value of yeast fitness has been recorded for this entry: C22G C27G C31G
0.571

What value of yeast fitness has been recorded for this entry: U7C A37C C60G G63A A65U A70C
≤ 0.5

What value of yeast fitness has been recorded for this entry: A42G A45C G48C
≤ 0.5

What value of yeast fitness has been recorded for this entry: U13C U26G U35C G63A A70G
≤ 0.5

What value of yeast fitness has been recorded for this entry: G6A A21G C33G A57U C62U
≤ 0.5

What value of yeast fitness has been recorded for this entry: U3A A21C C24G C62G
0.599

What value of yeast fitness has been recorded for this entry: C29A C46A C49A
≤ 0.5

What value of yeast fitness has been recorded for this entry: G23C U54C C66U
≤ 0.5

What value of yeast fitness has been recorded for this entry: A36G G48A
0.991

What value of yeast fitness has been recorded for this entry: C11G C46A
0.576

What value of yeast fitness has been recorded for this entry: A43U G56A A57G
0.691

What value of yeast fitness has been recorded for this entry: C4U G12A U16A G51A U54A
≤ 0.5

What value of yeast fitness has been recorded for this entry: C4G C11U A14U G23A C62A
≤ 0.5
